Measurement Target: SARS-COV-2 3CLpro (having a P132H mutation, 3CLpro^P132H) (Severe acute respiratory syndrome coronavirus 2, UniProt P0DTD1, P3395H)
Format: biochemical
// reported Inhibition Rate ([Cpd.]=40 uM) per item
Recorded Metric: Inhibition Rate ([Cpd.]=40 uM)

compound="CCOc1ccc(N(Cc2nnc3n2CCCCC3)C(=O)Nc2ccc(C)cc2)cc1 [E12]" result="< 0.5"
compound="Cc1ccccc1N1C(=O)C(=Cc2ccc(N3CCOCC3)cc2)c2ccccc2C1=O [D9]" result="< 0.5"
compound="COc1ccccc1-n1c(=O)c2c3c(sc2n(Cc2cccc(Cl)c2)c1=O)CN(C(C)=O)CC3 [D7]" result="< 0.5"
compound="Cc1c(C(=O)N(C)Cc2ccccc2)sc2ncnc(N(C)c3ccccc3)c12 [D14]" result="< 0.5"
compound="O=C1/C(=C\\NN(Cc2ccccc2)c2ccccc2)c2ccccc2C(=O)N1c1cccc(Cl)c1 [E4]" result=0.65
